- protocol.text: Safety, tolerability and pharmacokinetics in patients having chronic kidney disease (Example 9)
- Type: in vivo, human
- recorded.conditions: human, plasma, oral, 2.5 mg/day, CKD patients, multiple doses 2.5 mg/day; read-out: average safe steady-state AUCtau

- test.smiles: "N#Cc1ccc(N2N=C3c4ccc(C(=O)N5CCC(O)CC5)nc4CC[C@@H]3[C@@H]2C2CCCC2)cc1Cl"
  endpoint.unit: "ng·h/mL"
  AUC: 2610

====

- protocol.text: Safety, tolerability and pharmacokinetics in healthy subjects, single dose (Example 7)
- Type: in vivo, human
- recorded.conditions: human, plasma, oral, single dose 30 mg
quantity.kind: half-life (h)

- test.smiles: "N#Cc1ccc(N2N=C3c4ccc(C(=O)N5CCC(O)CC5)nc4CC[C@@H]3[C@@H]2C2CCCC2)cc1Cl"
  endpoint.unit: "h"
  recorded.value: 73.9

====

- protocol.text: Absorption of Compound I D90 5 μm suspension in Beagle dogs (Example 3-2)
- Assay type: in vivo
- recorded.conditions: dog, plasma, po, intragastric single dose 0.5 mg/kg, suspension in 0.5% MC

- test.smiles: "N#Cc1ccc(N2N=C3c4ccc(C(=O)N5CCC(O)CC5)nc4CC[C@@H]3[C@@H]2C2CCCC2)cc1Cl"
  AUC(0-inf) (ng·h/mL): 506

====

- protocol.text: Safety, tolerability and pharmacokinetics in healthy subjects, single dose (Example 7)
- Assay type: in vivo, human
- recorded.conditions: human, plasma, oral, single dose 1.0 mg capsules, read-out: AUC0-24

- compound: "N#Cc1ccc(N2N=C3c4ccc(C(=O)N5CCC(O)CC5)nc4CC[C@@H]3[C@@H]2C2CCCC2)cc1Cl [Compound I]"
  AUC(0-t), ng·h/mL: 397

====

- protocol.text: Safety, tolerability and pharmacokinetics in healthy subjects, single dose (Example 7)
- Format: in vivo, human
- recorded.conditions: human, plasma, oral, single dose 2.5 mg capsule, read-out: AUC0-24

- test.smiles: "N#Cc1ccc(N2N=C3c4ccc(C(=O)N5CCC(O)CC5)nc4CC[C@@H]3[C@@H]2C2CCCC2)cc1Cl"
  AUC(0-t): "640 ng·h/mL"

====

- protocol.text: 13-week toxicity and pharmacokinetic study in SD rats with 4-week recovery (Example 5)
- Type: in vivo
- recorded.conditions: rat, in vivo, oral; female SD rats, 13 weeks; read-out: NOAEL (no observed adverse effect level)

- test.smiles: "N#Cc1ccc(N2N=C3c4ccc(C(=O)N5CCC(O)CC5)nc4CC[C@@H]3[C@@H]2C2CCCC2)cc1Cl"
  NOAEL at 13 weeks / mg/kg/day: 10

====

- protocol.text: Safety, tolerability and pharmacokinetics in healthy subjects, single dose (Example 7)
- Type: in vivo, human
- recorded.conditions: human, plasma, oral, single dose 0.5 mg capsule, read-out: AUC0-24

- test.smiles: "N#Cc1ccc(N2N=C3c4ccc(C(=O)N5CCC(O)CC5)nc4CC[C@@H]3[C@@H]2C2CCCC2)cc1Cl"
  AUC(0-t) [ng·h/mL]: 162

====

- protocol.text: Safety, tolerability and pharmacokinetics in healthy subjects, multiple doses (Example 8)
- Format: in vivo, human
- recorded.conditions: human, plasma, oral, 2.5 mg/day, healthy subjects, multiple doses 2.5 mg/day, 14 days; read-out: average steady-state AUC0-24 (AUCtau)

- test.smiles: "N#Cc1ccc(N2N=C3c4ccc(C(=O)N5CCC(O)CC5)nc4CC[C@@H]3[C@@H]2C2CCCC2)cc1Cl"
  AUC(0-t), ng·h/mL: 2860

====

- protocol.text: Safety, tolerability and pharmacokinetics in patients having chronic kidney disease (Example 9)
- Assay type: in vivo, human
- recorded.conditions: human, plasma, oral, 0.5 mg, CKD patients; mean AUC plus twice the standard deviation at 0.5 mg; read-out: upper limit of AUC that is safe
quantity.kind: AUC

- test.smiles: "N#Cc1ccc(N2N=C3c4ccc(C(=O)N5CCC(O)CC5)nc4CC[C@@H]3[C@@H]2C2CCCC2)cc1Cl"
  recorded.value: "1120 ng·h/mL"

====

- protocol.text: Safety, tolerability and pharmacokinetics in healthy subjects, single dose (Example 7)
- Type: in vivo, human
- recorded.conditions: human, plasma, oral, single dose 1.0 mg

- test.smiles: "N#Cc1ccc(N2N=C3c4ccc(C(=O)N5CCC(O)CC5)nc4CC[C@@H]3[C@@H]2C2CCCC2)cc1Cl"
  half-life / h: 60.9

====

- protocol.text: 13-week toxicity and pharmacokinetic study in SD rats with 4-week recovery (Example 5)
- Type: in vivo
- recorded.conditions: female, SD, rat, in vivo, po, 3 mg/kg/day, female SD rats, 3 mg/kg/day intragastric, 13 weeks; read-out: AUC0-24 h

- test.smiles: "N#Cc1ccc(N2N=C3c4ccc(C(=O)N5CCC(O)CC5)nc4CC[C@@H]3[C@@H]2C2CCCC2)cc1Cl"
  endpoint.unit: "µg·h/mL"
  AUC(0-t): 15.5

====

- protocol.text: 13-week toxicity and pharmacokinetic study in SD rats with 4-week recovery (Example 5)
- Type: in vivo
- recorded.conditions: male, SD, rat, in vivo, po, 30 mg/kg/day, male SD rats, 30 mg/kg/day intragastric, 13 weeks (steady-state); read-out: AUC0-24 h
quantity.kind: AUC(0-t)

- compound: "N#Cc1ccc(N2N=C3c4ccc(C(=O)N5CCC(O)CC5)nc4CC[C@@H]3[C@@H]2C2CCCC2)cc1Cl [Compound I]"
  quantity.kind: "AUC(0-t)"
  recorded.value: "49900 ng·h/mL"
